Origin of values: the NIST ThermoML archive (doi:10.1021/je100715x)

Test summary: refractive index (Na D-line) (dimensionless)
Recorded conditions: 308.15 K; 101.33 kPa; Liquid; Standard Abbe refractometry
Measured attribute: refractive index

1) O=C1CCCCC1; 1.444
2) CCOC(=O)C(=O)OCC [diethyl ethanedioate]; 1.404
3) CC(=O)c1ccccc1; 1.527
4) O=C1CCCC1; 1.431
5) CCC(=O)CC; 1.3857

----------
Recorded conditions: 313.15 K; 101.33 kPa; Liquid; Vibrating tube method
Measured attribute: mass density (kg/m3)

1. CC(=O)c1ccccc1; 1013.5
2. O=C1CCCCC1; 928.2
3. CCC(=O)CC; 797.7
4. CCOC(=O)C(=O)OCC [diethyl ethanedioate]; 1054.5
5. O=C1CCCC1; 929

----------
Recorded conditions: 313.15 K; 101.33 kPa; Liquid; Capillary tube (Ostwald / Ubbelohde) method
Measured attribute: viscosity (mPa·s)

Worked cases, answers included:
1) O=C1CCCC1; 0.865
2) CC(=O)c1ccccc1; 1.291
3) CCOC(=O)C(=O)OCC [diethyl ethanedioate]; 1.367

I: O=C1CCCCC1
II: CCC(=O)CC
(Q) Lab note: record which item had the higher viscosity, I or II . Label of pick, please.
(A) I
(I: 1.542 mPa·s, II: 0.388 mPa·s)

----------
Test summary: refractive index (Na D-line) (dimensionless)
Recorded conditions: 303.15 K; 101.33 kPa; Liquid; Standard Abbe refractometry
Measured attribute: refractive index

1. CC(=O)c1ccccc1; 1.5294
2. O=C1CCCCC1; 1.4465
3. CCOC(=O)C(=O)OCC [diethyl ethanedioate]; 1.4063
4. O=C1CCCC1; 1.4335
5. CCC(=O)CC; 1.3879

----------
Recorded conditions: 308.15 K; 101.33 kPa; Liquid; Capillary tube (Ostwald / Ubbelohde) method
Measured attribute: viscosity (mPa·s)

Worked cases, answers included:
1. CCOC(=O)C(=O)OCC [diethyl ethanedioate]; 1.48
2. O=C1CCCCC1; 1.657

a: CCC(=O)CC
b: CC(=O)c1ccccc1
c: O=C1CCCC1
(Q) Number of compounds to sort: 3. Sort criterion: viscosity, ascending. A complete answer lists every label in the requested sequence.
(A) a, c, b
(a: 0.397 mPa·s, c: 0.927 mPa·s, b: 1.378 mPa·s)

----------
Recorded conditions: 303.15 K; 101.33 kPa; Liquid; Capillary tube (Ostwald / Ubbelohde) method
Measured attribute: viscosity (mPa·s)

I: CC(=O)c1ccccc1
II: O=C1CCCC1
III: CCC(=O)CC
(Q) Order these compounds (above) by their viscosity, from the smallest value upward. A complete answer lists every label in the requested sequence.
(A) III, II, I

----------
Recorded conditions: 303.15 K; 101.33 kPa; Liquid; Vibrating tube method
Measured attribute: mass density (kg/m3)

1. CC(=O)c1ccccc1; 1019.9
2. O=C1CCCCC1; 937.7
3. CCC(=O)CC; 805.7
4. CCOC(=O)C(=O)OCC [diethyl ethanedioate]; 1066.1
5. O=C1CCCC1; 938.5

----------
Recorded conditions: 308.15 K; 101.33 kPa; Liquid; Vibrating tube method
Measured attribute: mass density (kg/m3)

1. O=C1CCCC1; 933.9
2. CCC(=O)CC; 801.7
3. CC(=O)c1ccccc1; 1016.9
4. O=C1CCCCC1; 932.8
5. CCOC(=O)C(=O)OCC [diethyl ethanedioate]; 1060.5
